# System: female adult common house mosquitoes (Culex pipiens pallens)
# test_name: Example 1: spontaneous volatilization efficaciousness test in 33 m^3 room (knockdown, KT50)
# Assay type: in vivo
# recorded_conditions: elapsed time 1680 hr

molecule	tested_system	KT50 / min
Cc1c(F)c(F)c(COC(=O)C2C(C=C(F)Cl)C2(C)C)c(F)c1F (stereo not shown) [Sample Chemical C]	female adult common house mosquitoes (Culex pipiens pallens)	20.70
CC=CC1C(C(=O)OCc2c(F)c(F)c(COC)c(F)c2F)C1(C)C (stereo not shown) [Sample Chemical A]	female adult common house mosquitoes (Culex pipiens pallens)	11.60
CC1(C)[C@H](C=C(Cl)Cl)[C@H]1C(=O)OCc1c(F)c(F)cc(F)c1F [Transfluthrin, reference compound]	female adult common house mosquitoes (Culex pipiens pallens)	30.40
C#CC(OC(=O)C1C(C=C(Cl)Cl)C1(C)C)C(F)=CCC (stereo not shown) [Sample Chemical B]	female adult common house mosquitoes (Culex pipiens pallens)	9.60

###

As shown below, each of these compounds has a reported KT50 value.
# Test system: female adult common house mosquitoes (Culex pipiens pallens)
# test_name: Example 1: spontaneous volatilization efficaciousness test in 33 m^3 room (knockdown, KT50)
# Format: in vivo
# recorded_conditions: elapsed time 864 hr
parameter: KT50 (min)

compound	tested_system	observed
C#CC(OC(=O)C1C(C=C(Cl)Cl)C1(C)C)C(F)=CCC (stereo not drawn)	female adult common house mosquitoes (Culex pipiens pallens)	7.90
Cc1c(F)c(F)c(COC(=O)C2C(C=C(F)Cl)C2(C)C)c(F)c1F (stereo not drawn)	female adult common house mosquitoes (Culex pipiens pallens)	12.60
CC=CC1C(C(=O)OCc2c(F)c(F)c(COC)c(F)c2F)C1(C)C (stereo not drawn)	female adult common house mosquitoes (Culex pipiens pallens)	9.60

###

# Test system: female adult stegomyia mosquitoes (Aedes albopictus)
# test_name: Comparative debugging efficaciousness tests: bloodsucking prevention on rats, liquid type electric mosquito repellent utensil
# Type: in vivo
# recorded_conditions: relative to d,d-T80-prallethrin (Etoc) = 100
parameter: Potency Ratio (Etoc 100), of IC90 Value

molecule	observed
C=CCC1=C(C)C(OC(=O)C2C(C)(C)C2(C)C)CC1=O (stereo not shown) [Terallethrin]	3.8
Cc1c(F)c(F)c(COC(=O)C2C(C=C(F)Cl)C2(C)C)c(F)c1F (stereo not shown) [Sample Chemical C]	348.2
C#CCC1=C(C)C(OC(=O)C2C(C=C(C)C)C2(C)C)CC1=O (stereo not drawn) [d,d-T80-prallethrin]	100.0
COc1c(F)c(F)c(COC(=O)C2C(C=C(Cl)Cl)C2(C)C)c(F)c1F (stereo not shown) [Sample Chemical D]	21.3
